What pIC50 was measured for each of the following?
Test system: C6
Test: Cytotoxicity against rat C6 cells assessed as cell viability after 72 hrs by CCK cell proliferation assay
Type: functional, cell-based
Conditions: C6, 72 h
Numbers only, as −log10 of the molar value.

Please go through the list and note pIC50 for each molecule.
1. C=C1C(=O)O[C@H]2[C@@H]1CC/C(C)=C\CC[C@@]1(C)O[C@@H]21
2. C=C1C(=O)O[C@@H]2C3O[C@]3(C)CC/C=C(\C)CC[C@@H]12 (some centres undefined)
3. C=C1C(=O)O[C@H]2[C@@H]1CC/C(C)=C/CC[C@@]1(C)O[C@@H]21
4. C=C1C(=O)O[C@H]2[C@H]1CC/C(C)=C\CC[C@@]1(C)O[C@@H]21

1: 4.38; 2: 5.18; 3: 4.62; 4: 5.41
